Answer each item with its documented IC50.
# targetOrSystem: c-Cbl (Homo sapiens (Human))
# Sequence (P22681 47-435): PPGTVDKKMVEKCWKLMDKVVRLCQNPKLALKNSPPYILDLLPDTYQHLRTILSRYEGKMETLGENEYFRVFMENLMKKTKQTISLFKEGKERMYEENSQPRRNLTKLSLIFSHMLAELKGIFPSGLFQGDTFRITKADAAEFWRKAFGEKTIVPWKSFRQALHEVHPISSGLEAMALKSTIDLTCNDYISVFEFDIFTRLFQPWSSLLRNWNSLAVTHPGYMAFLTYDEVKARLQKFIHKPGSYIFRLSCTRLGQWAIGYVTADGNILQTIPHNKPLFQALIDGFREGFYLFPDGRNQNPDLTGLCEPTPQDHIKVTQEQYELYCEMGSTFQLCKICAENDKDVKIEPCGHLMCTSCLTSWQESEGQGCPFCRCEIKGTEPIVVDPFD
# assayName: C-Cbl LCK Ub TR-FRET assay (c-cbl Lck HTRF)
# Type: biochemical
Counter-ions that a name gives are not always drawn.
// units = nM; emit number, no label

Tested system c-Cbl (Homo sapiens (Human)); IC50 recorded for CCCNCc1cc2c(c(C(F)(F)F)c1)CN(c1cccc(C3([C@H](F)c4nncn4C)CC(F)(F)C3)c1)C2=O [Compound 446] was 29

Tested system c-Cbl (Homo sapiens (Human)); IC50 recorded for CCNc1cc(C2(Cc3nncn3C)CC(F)(F)C2)cc(N2Cc3c(cc(CN4CCN(C)C[C@@H]4C(C)C)cc3C(F)(F)F)C2=O)n1 [Compound 236, formate] was 8

Tested system c-Cbl (Homo sapiens (Human)); IC50 recorded for Cn1cnnc1CC1(c2cccc(N3Cc4c(cc(CN5CCC[C@](C)(O)C5)cc4C(F)(F)F)C3=O)c2)CC(F)(F)C1 [Compound 440] was 110

Tested system c-Cbl (Homo sapiens (Human)); IC50 recorded for Cn1cnnc1CC1(c2cccc(N3Cc4c(cc(CNC5(C)CCC5)cc4C(F)(F)F)C3=O)c2)COC1 [Compound 301] was 10

====

# targetOrSystem: c-Cbl (Homo sapiens (Human))
# assayName: C-Cbl LCK Ub TR-FRET assay (c-cbl Lck HTRF)
# Format: biochemical
# setupConditions: C-cbl Lck HTRF IC50 relative to Cbl-b Lck HTRF IC50
experimentalReadout: (fold-selectivity) (x)
// units = x; emit number, no label

Please fill in: (fold-selectivity) reported for "Cn1cnnc1[C@H](F)C1(c2cccc(N3Cc4c(cc(CN5CCC[C@H](CO)C5)cc4C(F)(F)F)C3=O)c2)COC1" = 0.92

Please fill in: (fold-selectivity) reported for "C[C@H](c1cc2c(c(C(F)(F)F)c1)CN(c1cccc(C3([C@@H](F)c4nncn4C)COC3)c1)C2=O)N1CC(C)(F)C1" = 1.9

Please fill in: (fold-selectivity) reported for "Cn1cnnc1C[C@]1(c2cccc(N3Cc4c(cccc4C(F)(F)F)C3=O)c2)C[C@H](F)C1" = 1.9

Please fill in: (fold-selectivity) reported for "CC(=O)N1CCN(Cc2cc3c(c(C(F)(F)F)c2)CN(c2cccc(C4([C@@H](F)c5nncn5C)COC4)c2)C3=O)[C@@H](C(C)C)C1" = 2.6

Please fill in: (fold-selectivity) reported for "COCC1(F)CN(Cc2cc3c(c(C(F)(F)F)c2)CN(c2cccc(C4([C@@H](F)c5nncn5C)COC4)c2)C3=O)C1" = 1.9

Please fill in: (fold-selectivity) reported for "CC(C)Nc1cc([C@H](C)Cc2nncn2C)cc(N2Cc3c(cc(CN4CCC5(CC5)C4)cc3C(F)(F)F)C2=O)n1.O=CO" = 1.6

Please fill in: (fold-selectivity) reported for "COc1cccc2c1CN(c1cccc(C3([C@@H](F)c4nncn4C)COC3)c1)C2=O" = 1.5

Please fill in: (fold-selectivity) reported for "Cn1cnnc1[C@H](F)C1(c2cccc(N3Cc4c(cc(CN5CC6(C5)CS(=O)(=O)C6)cc4C(F)(F)F)C3=O)c2)COC1" = 2.1

Please fill in: (fold-selectivity) reported for "Cn1cnnc1[C@@H](F)C1(c2cccc(N3Cc4c(cc(CN5CCOCC5)cc4C(F)(F)F)C3=O)c2)COC1" = 2.3

Please fill in: (fold-selectivity) reported for "Cn1cnnc1[C@H](F)C1(c2cccc(N3Cc4c(cc(CN5CC6(C5)CC6(F)F)cc4C(F)(F)F)C3=O)c2)COC1" = 2.2

Please fill in: (fold-selectivity) reported for "CCC1(O)CN(Cc2cc3c(c(C(F)(F)F)c2)CN(c2cccc(C4([C@@H](F)c5nncn5C)COC4)c2)C3=O)C1" = 2.5

Please fill in: (fold-selectivity) reported for "Cn1cnnc1[C@@H](F)C1(c2cccc(N3Cc4c(cc(CN5CCC5)cc4C(F)(F)F)C3=O)c2)COC1" = 1.7

Please fill in: (fold-selectivity) reported for "CO[C@H]1CCN(Cc2cc3c(c(C(F)(F)F)c2)CN(c2cccc(C4([C@H](F)c5nncn5C)COC4)c2)C3=O)C1" = 2.1

====

# targetOrSystem: c-Cbl (Homo sapiens (Human))
# assayName: C-Cbl LCK Ub TR-FRET assay (c-cbl Lck HTRF)
# Assay type: biochemical
pIC50: −log10 of the molar value. Where a name gives a salt, the structure may show the parent alone.
Threshold check on pIC50: at or above 7 gives yes (1), strictly below gives no (0).

Q: Please tell me: is the molecule "Cn1cnnc1[C@@H](F)C1(c2cccc(N3Cc4c(cc(CN5CC[C@@H](F)C5)cc4C(F)(F)F)C3=O)c2)COC1" at or over 7 in terms of pIC50?
Result: no (0)

Q: Please tell me: is the molecule "Cn1cnnc1[C@@H](F)C1(c2cccc(N3Cc4c(cc(CN5CCC[C@H]5CO)cc4C(F)(F)F)C3=O)c2)COC1" at or over 7 in terms of pIC50?
Result: no (0)

Q: Please tell me: is the molecule "Cn1cnnc1[C@H](F)C1(c2cccc(N3Cc4c(cc([C@H](N)C5CCC5)cc4C(F)(F)F)C3=O)c2)COC1" at or over 7 in terms of pIC50?
Result: yes (1)

Q: Please tell me: is the molecule "CC(C)NCc1cc2c(c(C(F)(F)F)c1)CN(c1cccc(C3(Cc4nncn4C)CC(F)(F)C3)c1)C2=O" at or over 7 in terms of pIC50?
Result: yes (1)

Q: Please tell me: is the molecule "CCc1cc(C2(Cc3nncn3C)CCC2)cc(N2Cc3c(cc(CNC4(C)CCC4)cc3C(F)(F)F)C2=O)n1" at or over 7 in terms of pIC50?
Result: yes (1)

Q: Please tell me: is the molecule "Cn1cnnc1CC1(c2cccc(N3Cc4c(cc(CNC5(C)CCC5)cc4C(F)F)C3=O)c2)CC(F)(F)C1" at or over 7 in terms of pIC50?
Result: yes (1)

Q: Please tell me: is the molecule "CCn1cnnc1[C@@H](F)C1(c2cccc(N3Cc4c(cccc4C(F)(F)F)C3=O)c2)COC1" at or over 7 in terms of pIC50?
Result: no (0)

Q: Please tell me: is the molecule "Cn1cnnc1[C@@H](F)C1(c2cccc(N3Cc4c(cc(CN5CC(C)(C)C5)cc4C(F)(F)F)C3=O)c2)COC1" at or over 7 in terms of pIC50?
Result: no (0)

Q: Please tell me: is the molecule "Cn1cnnc1[C@H](F)C1(c2cccc(N3Cc4c(cc(CN5CC6CC5C6)cc4C(F)(F)F)C3=O)c2)COC1" at or over 7 in terms of pIC50?
Result: no (0)

Q: Please tell me: is the molecule Cn1cnnc1CC1(c2cccc(N3Cc4c(cc(CNC5(C)CCCC5)cc4C(F)(F)F)C3=O)c2)CC(F)(F)C1 [Compound 344, formate] at or over 7 in terms of pIC50?
Result: yes (1)

Q: Please tell me: is the molecule "Cn1cnnc1[C@H](F)C1(c2cccc(N3Cc4c(cc(CN5CC6(COC6)C5)cc4C(F)(F)F)C3=O)c2)COC1" at or over 7 in terms of pIC50?
Result: no (0)

Q: Please tell me: is the molecule "Cn1cnnc1CC1(c2cc(NC3CCCC3)cc(N3Cc4c(cc(CNC5(C)CCC5)cc4C(F)(F)F)C3=O)c2)COC1" at or over 7 in terms of pIC50?
Result: no (0)

====

Answer each item with its documented pIC50.
# targetOrSystem: c-Cbl (Homo sapiens (Human))
# assayName: C-Cbl LCK Ub TR-FRET assay (c-cbl Lck HTRF)
# Format: biochemical
Structures can show the parent of a compound that is named as a salt.
Quick note: pIC50 means taking -log10 of the concentration in moles per liter.

Tested system c-Cbl (Homo sapiens (Human)); pIC50 recorded for "Cn1cnnc1[C@H](F)[C@@](C)(F)c1cccc(N2Cc3c(cc(CN4CC(C)(F)C4)cc3C(F)(F)F)C2=O)c1" was 5.72

Tested system c-Cbl (Homo sapiens (Human)); pIC50 recorded for CCOc1cc(C2(Cc3nncn3C)CCC2)cc(N2Cc3c(cc(CNC4(C)CCC4)cc3C(F)(F)F)C2=O)n1 [Compound 285] was 8.28

Tested system c-Cbl (Homo sapiens (Human)); pIC50 recorded for "Cn1cnnc1CC1(c2cccc(N3Cc4c(cc(OCc5c[nH]cn5)cc4C(F)(F)F)C3=O)c2)CC(F)(F)C1" was 7.77

Tested system c-Cbl (Homo sapiens (Human)); pIC50 recorded for "CCn1cnnc1[C@H](F)C1(c2cccc(N3Cc4c(cccc4C(F)(F)F)C3=O)c2)COC1" was 4.96

Tested system c-Cbl (Homo sapiens (Human)); pIC50 recorded for "CC(C)CNCc1cc2c(c(C(F)(F)F)c1)CN(c1cccc(C3([C@H](F)c4nncn4C)CC(F)(F)C3)c1)C2=O" was 8.04

Tested system c-Cbl (Homo sapiens (Human)); pIC50 recorded for Cn1cnnc1CC1(c2cccc(N3Cc4c(cc(C5CCN5)cc4C(F)(F)F)C3=O)c2)COC1 (centres unmarked) [Compound 13, formate] was 6.27

Tested system c-Cbl (Homo sapiens (Human)); pIC50 recorded for "CC(C)C1(O)CN(Cc2cc3c(c(C(F)(F)F)c2)CN(c2cccc(C4([C@@H](F)c5nncn5C)COC4)c2)C3=O)C1" was 6.92

Tested system c-Cbl (Homo sapiens (Human)); pIC50 recorded for "Cn1cnnc1[C@@H](F)C1(c2cccc(N3Cc4c(cc(CN5CC(C)(O)C5)cc4C(F)(F)F)C3=O)c2)CC(F)(F)C1" was 6.89

Tested system c-Cbl (Homo sapiens (Human)); pIC50 recorded for "CCNc1cc(N2Cc3c(cc(CNC4(C)CCC4)cc3C(F)(F)F)C2=O)cc(C2(Cc3nncn3C)CCC2)c1" was 8.46

Tested system c-Cbl (Homo sapiens (Human)); pIC50 recorded for "Cn1cnnc1[C@H](F)C1(c2cccc(N3Cc4c(cc(CNC5(C)CCC5)cc4C(F)(F)F)C3=O)c2)CC(F)(F)C1" was 7.92

Tested system c-Cbl (Homo sapiens (Human)); pIC50 recorded for "CC(C)[C@H]1CN(C)CCN1Cc1cc2c(c(C(F)(F)F)c1)CN(c1cccc(C3(Cc4nncn4C)COC3)c1)C2=O" was 8.24

Tested system c-Cbl (Homo sapiens (Human)); pIC50 recorded for "Cn1cnnc1[C@@H](F)C1(c2cccc(N3Cc4c(cc(CNCCCF)cc4C(F)(F)F)C3=O)c2)CC(F)(F)C1" was 7.80

Tested system c-Cbl (Homo sapiens (Human)); pIC50 recorded for "CC(C)[C@H]1CN(C)CCN1Cc1cc2c(c(C(F)(F)F)c1)CN(c1cccc(C3([C@H](F)c4nncn4C(F)F)COC3)c1)C2=O" was 7.96

Tested system c-Cbl (Homo sapiens (Human)); pIC50 recorded for CCOc1cc([C@H](C)Cc2nncn2C)cc(N2Cc3c(cc(CN4CCC5(CC5)C4)cc3C(F)(F)F)C2=O)n1 [Compound 56, formate] was 7.66
